Give concentration at 3 h for every item shown.
assay: Compound exposure in rat brain and plasma after oral dosing (DMPK analysis); assay type: in vivo; details: male, Sprague Dawley, Plasma, 30 mg/kg p.o., 3 hours post dose, read-out: Exp (exposure)
Return type: number; implicit unit ng/g.

(Q) Bench note: what concentration at 3 h did `COc1cnc(C(=O)Nc2ccc(F)c([C@]34COC[C@@]3(F)C[C@](C)(F)C(N)=N4)c2)cn1` show?
(A) 598

(Q) Bench note: what concentration at 3 h did `COc1cnc(C(=O)Nc2ccc(F)c([C@]34COC[C@@]3(F)C[C@@](C)(F)C(N)=N4)c2)cn1` show?
(A) 239

(Q) Bench note: what concentration at 3 h did `[2H]C([2H])([2H])Oc1ccc(C(=O)Nc2ccc(F)c([C@]34COC[C@@]3(F)C[C@](C)(F)C(N)=N4)c2)nc1` show?
(A) 634

(Q) Bench note: what concentration at 3 h did `C[C@]1(F)C[C@]2(F)COC[C@]2(c2cc(NC(=O)c3ccc(F)cn3)ccc2F)N=C1N` show?
(A) 244

(Q) Bench note: what concentration at 3 h did `[2H]C([2H])([2H])Oc1ccc(C(=O)Nc2ccc(F)c([C@]34COC[C@H]3C[C@@](F)(CF)C(N)=N4)c2)nc1` show?
(A) 1830

* * *

assay: Compound exposure in rat brain and plasma after oral dosing (DMPK analysis); format: in vivo; settings: male, Sprague Dawley, brain/plasma, 10 mg/kg p.o., 3 hours post dose, read-out: Brain/Plasma ratio
Give Kp at 3 h for every item shown.
Lab note: record just the number, no unit beside it.

(Q) Bench note: what Kp at 3 h did [2H]C([2H])([2H])Oc1ccc(C(=O)Nc2ccc(F)c([C@]34COC[C@H]3C[C@@](F)(CF)C(N)=N4)c2)nc1 [Example 22] show?
(A) 0.38

(Q) Bench note: what Kp at 3 h did COc1cnc(C(=O)Nc2ccc(F)c([C@]34COC[C@@]3(F)C[C@@](C)(F)C(N)=N4)c2)cn1 [Example 7] show?
(A) 1.05

(Q) Bench note: what Kp at 3 h did [2H]C([2H])([2H])Oc1ccc(C(=O)Nc2ccc(F)c([C@]34COC[C@@]3(F)C[C@](C)(F)C(N)=N4)c2)nc1 [Example 1] show?
(A) 1.06

(Q) Bench note: what Kp at 3 h did C[C@]1(F)C[C@]2(F)COC[C@]2(c2cc(NC(=O)c3ccc(F)cn3)ccc2F)N=C1N [Example 2] show?
(A) 0.54

(Q) Bench note: what Kp at 3 h did COc1cnc(C(=O)Nc2ccc(F)c([C@]34COC[C@@]3(F)C[C@](C)(F)C(N)=N4)c2)cn1 [Example 5] show?
(A) 1.17

* * *

Give Ki for every item shown.
target: human BACE1 (Homo sapiens)
Sequence (P56817 46-501): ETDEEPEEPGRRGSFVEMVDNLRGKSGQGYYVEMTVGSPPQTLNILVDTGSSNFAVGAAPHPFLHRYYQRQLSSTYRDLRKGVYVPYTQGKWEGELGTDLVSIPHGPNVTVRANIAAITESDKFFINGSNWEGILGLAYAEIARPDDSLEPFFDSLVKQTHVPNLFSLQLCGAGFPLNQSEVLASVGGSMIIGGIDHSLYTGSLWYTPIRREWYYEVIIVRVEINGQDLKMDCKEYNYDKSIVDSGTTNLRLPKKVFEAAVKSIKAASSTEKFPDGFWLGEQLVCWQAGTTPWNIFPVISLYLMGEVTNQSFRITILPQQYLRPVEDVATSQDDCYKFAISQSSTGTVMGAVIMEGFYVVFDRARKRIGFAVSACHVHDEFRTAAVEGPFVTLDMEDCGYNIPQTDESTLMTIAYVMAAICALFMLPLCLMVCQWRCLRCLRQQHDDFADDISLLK
Note: a bare number is incomplete; add the unit.

(Q) Bench note: what Ki did COc1ccc(C(=O)Nc2ccc(F)c([C@]34COC[C@H]3C[C@@](F)(CF)C(N)=N4)c2)nc1 [Example 21] show?
(A) 55 nM

(Q) Bench note: what Ki did COc1cnc(C(=O)Nc2ccc(F)c([C@]34COC[C@@]3(F)C[C@](C)(F)C(N)=N4)c2)cn1 [Example 5] show?
(A) 17 nM

(Q) Bench note: what Ki did NC1=N[C@@]2(c3cc(NC(=O)c4ccc(F)cn4)ccc3F)COC[C@H]2C[C@@]1(F)CF [Example 20] show?
(A) 140 nM

(Q) Bench note: what Ki did COc1ccc(C(=O)Nc2ccc(F)c([C@]34COC[C@H]3C[C@](F)(CF)C(N)=N4)c2)nc1 [Example 15] show?
(A) 65 nM

(Q) Bench note: what Ki did C[C@@]1(F)C[C@]2(F)COC[C@]2(c2cc(NC(=O)c3cnc(C(F)F)cn3)ccc2F)N=C1N [Example 8] show?
(A) 14 nM

(Q) Bench note: what Ki did NC1=N[C@@]2(c3cc(NC(=O)c4ccc(F)cn4)ccc3F)COC[C@H]2C[C@]1(F)CF [Example 16] show?
(A) 88 nM

(Q) Bench note: what Ki did [2H]C([2H])([2H])Oc1ccc(C(=O)Nc2ccc(F)c([C@]34COC[C@H]3C[C@@](F)(CF)C(N)=N4)c2)nc1 [Example 22] show?
(A) 51 nM

(Q) Bench note: what Ki did [2H]C([2H])([2H])Oc1cnc(C(=O)Nc2ccc(F)c([C@]34COC[C@@]3(F)C[C@@](C)(F)C(N)=N4)c2)cn1 [Example 13] show?
(A) 29 nM

(Q) Bench note: what Ki did COc1ccc(C(=O)Nc2cc(F)c(F)c([C@]34COC[C@H]3C[C@](F)(CF)C(N)=N4)c2)nc1 [Example 17] show?
(A) 99 nM

* * *

assay: Compound exposure in rat brain and plasma after oral dosing (DMPK analysis); type: in vivo; conditions: male, Sprague Dawley, Plasma, 10 mg/kg p.o., 3 hours post dose, read-out: Exp (exposure)
MEASUREMENT_LABEL: concentration at 3 h
Note: a bare number is incomplete; add the unit.

(Q) Bench note: what concentration at 3 h did `COc1cnc(C(=O)Nc2ccc(F)c([C@]34COC[C@@]3(F)C[C@@](C)(F)C(N)=N4)c2)cn1` show?
(A) 88 ng/g

(Q) Bench note: what concentration at 3 h did `C[C@]1(F)C[C@]2(F)COC[C@]2(c2cc(NC(=O)c3ccc(F)cn3)ccc2F)N=C1N` show?
(A) 69 ng/g

(Q) Bench note: what concentration at 3 h did `COc1cnc(C(=O)Nc2ccc(F)c([C@]34COC[C@@]3(F)C[C@](C)(F)C(N)=N4)c2)cn1` show?
(A) 174 ng/g

(Q) Bench note: what concentration at 3 h did `[2H]C([2H])([2H])Oc1ccc(C(=O)Nc2ccc(F)c([C@]34COC[C@H]3C[C@@](F)(CF)C(N)=N4)c2)nc1` show?
(A) 399 ng/g

(Q) Bench note: what concentration at 3 h did `[2H]C([2H])([2H])Oc1ccc(C(=O)Nc2ccc(F)c([C@]34COC[C@@]3(F)C[C@](C)(F)C(N)=N4)c2)nc1` show?
(A) 184 ng/g

* * *

tested on: Aβ40 peptide; assay: Assessment of Aβ peptide levels in rat brain and plasma following BACE1 inhibition (Aβ40 ELISA); assay type: in vivo; settings: Plasma, 30 mg/kg p.o., 3 hours post dose, vs vehicle
MEASUREMENT_LABEL: Aβ40 reduction (%)
Return type: number; implicit unit %.

(Q) Bench note: what Aβ40 reduction did `COc1cnc(C(=O)Nc2ccc(F)c([C@]34COC[C@@]3(F)C[C@](C)(F)C(N)=N4)c2)cn1` show?
(A) 45

(Q) Bench note: what Aβ40 reduction did `[2H]C([2H])([2H])Oc1ccc(C(=O)Nc2ccc(F)c([C@]34COC[C@@]3(F)C[C@](C)(F)C(N)=N4)c2)nc1` show?
(A) 52

(Q) Bench note: what Aβ40 reduction did `COc1cnc(C(=O)Nc2ccc(F)c([C@]34COC[C@@]3(F)C[C@@](C)(F)C(N)=N4)c2)cn1` show?
(A) 50

(Q) Bench note: what Aβ40 reduction did `C[C@]1(F)C[C@]2(F)COC[C@]2(c2cc(NC(=O)c3ccc(F)cn3)ccc2F)N=C1N` show?
(A) 47

(Q) Bench note: what Aβ40 reduction did `[2H]C([2H])([2H])Oc1ccc(C(=O)Nc2ccc(F)c([C@]34COC[C@H]3C[C@@](F)(CF)C(N)=N4)c2)nc1` show?
(A) 43

* * *

experiment: Compound exposure in rat brain and plasma after oral dosing (DMPK analysis); assay type: in vivo; settings: male, Sprague Dawley, Brain, 10 mg/kg p.o., 3 hours post dose, read-out: Exp (exposure)
Give concentration at 3 h for every item shown.
Return type: number; implicit unit ng/g.

(Q) Bench note: what concentration at 3 h did C[C@]1(F)C[C@]2(F)COC[C@]2(c2cc(NC(=O)c3ccc(F)cn3)ccc2F)N=C1N [Example 2] show?
(A) 37

(Q) Bench note: what concentration at 3 h did [2H]C([2H])([2H])Oc1ccc(C(=O)Nc2ccc(F)c([C@]34COC[C@H]3C[C@@](F)(CF)C(N)=N4)c2)nc1 [Example 22] show?
(A) 153

(Q) Bench note: what concentration at 3 h did COc1cnc(C(=O)Nc2ccc(F)c([C@]34COC[C@@]3(F)C[C@@](C)(F)C(N)=N4)c2)cn1 [Example 7] show?
(A) 93

(Q) Bench note: what concentration at 3 h did [2H]C([2H])([2H])Oc1ccc(C(=O)Nc2ccc(F)c([C@]34COC[C@@]3(F)C[C@](C)(F)C(N)=N4)c2)nc1 [Example 1] show?
(A) 194

(Q) Bench note: what concentration at 3 h did COc1cnc(C(=O)Nc2ccc(F)c([C@]34COC[C@@]3(F)C[C@](C)(F)C(N)=N4)c2)cn1 [Example 5] show?
(A) 204

* * *

assay: Compound exposure in rat brain and plasma after oral dosing (DMPK analysis); format: in vivo; conditions: male, Sprague Dawley, brain/plasma, 30 mg/kg p.o., 3 hours post dose, read-out: Brain/Plasma ratio
Give Kp at 3 h for every item shown.
Lab note: record just the number, no unit beside it.

(Q) Bench note: what Kp at 3 h did C[C@]1(F)C[C@]2(F)COC[C@]2(c2cc(NC(=O)c3ccc(F)cn3)ccc2F)N=C1N [Example 2] show?
(A) 0.56

(Q) Bench note: what Kp at 3 h did COc1cnc(C(=O)Nc2ccc(F)c([C@]34COC[C@@]3(F)C[C@](C)(F)C(N)=N4)c2)cn1 [Example 5] show?
(A) 1.16

(Q) Bench note: what Kp at 3 h did COc1cnc(C(=O)Nc2ccc(F)c([C@]34COC[C@@]3(F)C[C@@](C)(F)C(N)=N4)c2)cn1 [Example 7] show?
(A) 2.01

(Q) Bench note: what Kp at 3 h did [2H]C([2H])([2H])Oc1ccc(C(=O)Nc2ccc(F)c([C@]34COC[C@H]3C[C@@](F)(CF)C(N)=N4)c2)nc1 [Example 22] show?
(A) 0.42

(Q) Bench note: what Kp at 3 h did [2H]C([2H])([2H])Oc1ccc(C(=O)Nc2ccc(F)c([C@]34COC[C@@]3(F)C[C@](C)(F)C(N)=N4)c2)nc1 [Example 1] show?
(A) 1.5
